Reference source for all entries: paper PMC4963535

# TEST_SYSTEM: D2SR (Homo sapiens, UniProt P14416)
# Sequence (P14416 1-414 isoform P14416-2): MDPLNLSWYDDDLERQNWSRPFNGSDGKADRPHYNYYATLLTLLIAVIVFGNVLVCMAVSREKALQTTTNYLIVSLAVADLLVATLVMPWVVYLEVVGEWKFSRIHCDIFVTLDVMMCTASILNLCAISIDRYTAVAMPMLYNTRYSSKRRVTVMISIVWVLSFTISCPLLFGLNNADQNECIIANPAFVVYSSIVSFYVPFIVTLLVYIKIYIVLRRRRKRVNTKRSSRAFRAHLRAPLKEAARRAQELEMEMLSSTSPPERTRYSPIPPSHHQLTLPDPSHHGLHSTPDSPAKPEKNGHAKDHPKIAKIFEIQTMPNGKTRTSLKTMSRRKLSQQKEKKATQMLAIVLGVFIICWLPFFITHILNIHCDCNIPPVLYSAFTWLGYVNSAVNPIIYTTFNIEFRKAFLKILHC
# ASSAY_EXPLANATION: cAMP BRET assay (CAMYEL biosensor), HEK 293 T cells expressing D2SR
# STATED_CONDITIONS: read-out: EC50 D2SR, cAMP accumulation

COMPOUND: CCCN(CCCCc1cn(-c2ccc(-c3ccc(C(=O)NCCOC)cc3)cc2)nn1)C1Cc2ccccc2C1 [3g]
TEST_SYSTEM: D2SR (Homo sapiens, UniProt P14416)
EC50, nM: 2.8

###

# TEST_SYSTEM: hD2SR (Homo sapiens, UniProt P14416)
# Sequence (P14416 1-414 isoform P14416-2): as above
PROPERTY_NAME: Ki (nM)

SMILES_NOTATION: CCCN(CCCCc1cn(-c2ccc(-c3ccc(C(=O)NCCOC)cc3)cc2)nn1)C1Cc2ccccc2C1
TEST_SYSTEM: hD2SR (Homo sapiens, UniProt P14416)
UNIT: nM
TEST_VALUE: 3.3

###

# Ki measurements, system: hD4.4R (Homo sapiens)
# Sequence (P21917 whole entry): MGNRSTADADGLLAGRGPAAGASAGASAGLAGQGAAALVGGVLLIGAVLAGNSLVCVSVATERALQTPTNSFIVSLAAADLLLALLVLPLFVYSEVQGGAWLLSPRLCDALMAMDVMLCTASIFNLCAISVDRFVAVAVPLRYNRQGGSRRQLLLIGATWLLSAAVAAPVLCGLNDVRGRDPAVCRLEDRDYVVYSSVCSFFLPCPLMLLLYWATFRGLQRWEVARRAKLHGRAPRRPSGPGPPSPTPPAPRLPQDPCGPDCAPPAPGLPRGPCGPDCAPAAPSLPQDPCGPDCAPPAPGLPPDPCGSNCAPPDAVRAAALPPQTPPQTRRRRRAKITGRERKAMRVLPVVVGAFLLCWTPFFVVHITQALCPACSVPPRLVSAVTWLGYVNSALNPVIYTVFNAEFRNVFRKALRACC
PROPERTY_NAME: Ki (nM)

SMILES_NOTATION: CCCN(CCCCc1cn(-c2ccc(-c3ccc(C(=O)NCCOCCOCCOCCOCCOCCOCCC(=O)N[C@@H](CCCNC(=N)N)C(=O)N[C@@H](CCCNC(=N)N)C(=O)N4CCC[C@H]4C(=O)N[C@@H](Cc4ccc(O)cc4)C(=O)N[C@H](C(=O)N[C@@H](CC(C)C)C(=O)O)[C@@H](C)CC)cc3)cc2)nn1)C1Cc2ccccc2C1
UNIT: nM
TEST_VALUE: 25
--
SMILES_NOTATION: CCc1cc(Cl)c(OC)c(C(=O)NC[C@@H]2C[C@@H](OCCCCc3cn(-c4ccc(-c5ccc(C(=O)NCCOCCOCCOCCOCCOCCOCCC(=O)NCCOCCOCCOCCOCCOCCOCCC(=O)N[C@@H](CCCNC(=N)N)C(=O)N[C@@H](CCCNC(=N)N)C(=O)N6CCC[C@H]6C(=O)N[C@@H](Cc6ccc(O)cc6)C(=O)N[C@H](C(=O)N[C@@H](CC(C)C)C(=O)O)[C@@H](C)CC)cc5)cc4)nn3)CN2CC)c1O
UNIT: nM
TEST_VALUE: 850
--
SMILES_NOTATION: CCCN(CCCCc1cn(-c2ccc(-c3ccc(C(=O)NCCOCCOCCOCCOCCOCCOCCC(=O)NCCOCCOCCOCCOCCOCCOCCC(=O)N[C@@H](CCCNC(=N)N)C(=O)N[C@@H](CCCNC(=N)N)C(=O)N4CCC[C@H]4C(=O)N(CCc4ccc(O)cc4)CC(=O)N[C@H](C(=O)N[C@@H](CC(C)C)C(=O)O)[C@@H](C)CC)cc3)cc2)nn1)C1Cc2ccccc2C1
UNIT: nM
TEST_VALUE: 71
